B1: POU domain, class 2, transcription factor 1, residues 285 to 354; numbered along this chain, P14859 (parent)
chain: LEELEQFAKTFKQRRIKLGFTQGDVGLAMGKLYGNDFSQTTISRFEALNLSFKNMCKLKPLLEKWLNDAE

# Variants of: B1
# Protocol Details: abundance fitness (aPCA) (normalised: wild type 0, dead -1); higher = more abundant; growth selection in yeast, the domain comes from the species named
# Reported Conditions: Homo sapiens
Label 1 for high-side abundance fitness (at or above -0.02) and 0 for low-side abundance fitness (below it).

- L27I: 1
- S43F: 0
- L62A: 0
- K31V: 0
- L62F: 1
- F52V: 1
- R14F: 0
- Q13C: 0
- L58G: 0
- G26K: 0
- A8T: 1
- K64S: 1
- K59L: 0
- Y33V: 0
- L58M: 1
- T10Q: 1
- D36V: 0
- I16K: 0
- T41M: 0
- I16S: 1
- G34K: 0
- S43K: 1
- P60C: 0
- S51K: 0
- I42D: 0
- T21I: 0
- I16E: 1
- E2H: 0
- G23L: 1
- K53V: 0
- T10M: 0
- K59N: 0
- F7C: 1
